koff: recorded values
# TESTED TARGET: human DR5 (human)
# PROCEDURE TEXT: SPR (BIAcore X100), human DR5 on CM5 chip, IgG injected, 1:1 Langmuir model
Unit s⁻¹ implied. Number only.

BINDER	RECORDED METRIC	UNIT OF MEASUREMENT	DATA VALUE
DA21 (antibody, V domains shown) VH: EVQLVESGGGLVQPGGSLRLSCAASGFTFSSFNMLWVRQAPGKGLEWVAGIGKSDRYTGYGSAVKGRFTISRDDSKSTVYLQMNSLRAEDTAVYYCVRDAGSGCGSGGWTGACIDTWGQGTLVTVSS VL: DIQMTQSPSSLSASVGDRVTITCSGGDSYAGSYYYGWYQQKPGKAPKTLIYNNNNRPSGVPSRFSGSRSGTDFTLTISSLQPEDFATYYCGSRDSSGAGGFGQGTKVEIK	koff	s⁻¹	7.17e-06
DA35 (antibody, V domains shown) VH: AVTLDESGGGLQTPGGGLSLVCKGSGFTFSSFNMLWVRQAPGKGLEWVAGIGKSDRYTGYGSAVKGRATISRDDGQSTARLQMNSLRAEDTAVYYCVKDAGSGCGSGGWTGACIDTWGHGTEVIVSS VL: LTQPSSVSANLGGTVEITCSGGDSYAGSYYYGWYQQKAPGSAPVTVIYNNNNRPSNIPSRFSGSTSGSTATLTITGVQAEDEATYFCGSRDSSYVGIFGAGTTLTVL	koff	s⁻¹	9.12e-05
DA6 (antibody, V domains shown) VH: EVQLVESGGGLVQPGGSLRLSCAASGFTFSSFNMLWVRQAPGKGLEWVAGIGKSDRYTGYGSAVKGRFTISRDDSKSTVYLQMNSLRAEDTAVYYCARDAGSGCGSGGWTGACIDTWGQGTLVTVSS VL: DIQMTQSPSSLSASVGDRVTITCSGGDSYAGSYYYGWYQQKPGKAPKTLIYNNNNRPSGVPSRFSGSTSGTDFTLTISSLQPEDFATYYCGSRDSSYVGIFGQGTKVEIK	koff	s⁻¹	4.2e-06
DA18 (antibody, V domains shown) VH: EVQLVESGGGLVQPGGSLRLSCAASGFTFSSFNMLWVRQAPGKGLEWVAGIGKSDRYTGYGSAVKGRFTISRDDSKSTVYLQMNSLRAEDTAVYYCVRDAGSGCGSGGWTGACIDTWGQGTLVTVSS VL: DIQMTQSPSSLSASVGDRVTITCSGGDSYAGSYYYGWYQQKPGKAPKTLIYNNNNRPSGVPSRFSGSRSGTDFTLTISSLQPEDFATYYCGSRDSDGGGRFGQGTKVEIK	koff	s⁻¹	3.67e-05
DA13 (antibody, V domains shown) VH: EVQLVESGGGLVQPGGSLRLSCAASGFTFSSFNMLWVRQAPGKGLEWVAGIGKSDRYTGYGSAVKGRFTISRDTSKNTAYLQMNSLRAEDTAVYYCSRDAGSGCGSGGWTGACIDTWGQGTLVTVSS VL: DIQMTQSPSSLSASVGDRVTITCSGGDSYAGSYYYGWYQQKPGKAPKTLIYNNNNRPSGVPSRFSGSRSGTDFTLTISSLQPEDFATYYCGSRDSAGMGAFGQGTKVEIK	koff	s⁻¹	2.94e-05
DA26 (antibody, V domains shown) VH: AVTLDESGGGLQTPGGGLSLVCKGSGFTFSSFNMLWVRQAPGKGLEWVAGIGKSDRYTGYGSAVKGRATISRDDGQSTVYLQMNSLRAEDTGTYYCVKDAGSGCGSGGWTGACIDTWGHGTEVIVSS VL: LTQPSSVSANLGGTVEITCSGGDSYAGSYYYGWYQQKAPGSAPVTVIYNNNNRPSNIPSRFSGSTSGSTATLTITGVQAEDEATYYCGSRDSSYVGIFGAGTTLTVL	koff	s⁻¹	1.1e-06

Consider the binder shown here: DA30 (antibody, V domains shown) VH: AVTLDESGGGLQTPGGGLSLVCKGSGFTFSSFNMLWVRQAPGKGLEWVAGIGKSDRYTGYGSAVKGRATISRDDGQSTAYLQMNSLRAEDTGTYYCVKDAGSGCGSGGWTGACIDTWGHGTEVIVSS VL: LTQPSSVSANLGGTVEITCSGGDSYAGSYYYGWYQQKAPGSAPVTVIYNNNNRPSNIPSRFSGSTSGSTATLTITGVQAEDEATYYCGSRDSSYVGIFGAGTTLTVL What is its recorded koff?
7.97e-05

Consider the binder shown here: DA31 (antibody, V domains shown) VH: AVTLDESGGGLQTPGGGLSLVCKGSGFTFSSFNMLWVRQAPGKGLEWVAGIGKSDRYTGYGSAVKGRATISRDDGQSTARLQMNSLRAEDTGTYYCVKDAGSGCGSGGWTGACIDTWGHGTEVIVSS VL: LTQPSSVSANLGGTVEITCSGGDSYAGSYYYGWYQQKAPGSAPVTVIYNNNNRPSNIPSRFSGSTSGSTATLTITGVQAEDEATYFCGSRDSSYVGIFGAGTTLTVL What is its recorded koff?
8.79e-05

Consider the binder shown here: DA29 (antibody, V domains shown) VH: AVTLDESGGGLQTPGGGLSLVCKGSGFTFSSFNMLWVRQAPGKGLEWVAGIGKSDRYTGYGSAVKGRATISRDDGQSTARLQLNNLRAEDTGTYYCVKDAGSGCGSGGWTGACIDTWGHGTEVIVSS VL: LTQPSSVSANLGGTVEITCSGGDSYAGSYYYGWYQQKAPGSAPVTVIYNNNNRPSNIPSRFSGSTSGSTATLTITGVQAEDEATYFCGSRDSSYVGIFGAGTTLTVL What is its recorded koff?
8.47e-05

Consider the binder shown here: DA33 (antibody, V domains shown) VH: AVTLDESGGGLQTPGGGLSLVCKGSGFTFSSFNMLWVRQAPGKGLEWVAGIGKSDRYTGYGSAVKGRATISRDDGQSTARLQLNNLRAEDTAVYYCVKDAGSGCGSGGWTGACIDTWGHGTEVIVSS VL: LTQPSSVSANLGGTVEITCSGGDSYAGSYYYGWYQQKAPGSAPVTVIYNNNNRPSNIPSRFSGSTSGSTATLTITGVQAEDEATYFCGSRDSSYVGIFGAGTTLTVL What is its recorded koff?
9.77e-05
